readoutKind: Delta Gsolv (kcal/mol)

// known answers, use as guide
compound="COC(=O)C1=C(C)N=C(C)/C(=C(\\O)OC)C1c1cccc(OC)c1 (stereo in doubt; form 1)" readoutunit=kcal/mol testresult=-9.847
compound="COC(=O)C1=C(C)NC(C)=C([N+](=O)[O-])C1c1ccccc1C(F)(F)F (stereo in doubt; form 1)" readoutunit=kcal/mol testresult=-13.929
compound=CC1=C([N+](=O)[O-])C(c2ccccc2C(F)(F)F)C([N+](=O)[O-])=C(C)N1 readoutunit=kcal/mol testresult=-17.275
compound="CC1=CC(c2ccccc2C(F)(F)F)C([N+](=O)[O-])=C(C)N1 (stereo in doubt; form 1)" readoutunit=kcal/mol testresult=-10.313
compound="COC(=O)C1=C(C)NC(C)=C([N+](=O)[O-])C1c1ccccc1C(F)(F)F (stereo in doubt; form 2)" readoutunit=kcal/mol testresult=-14.15

a. COC(=O)C1=C(C)N=C(C)/C(=C(\O)OC)C1c1ccccc1C (centres undefined)
b. COC(=O)C1=C(C)NC(C)=C([N+](=O)[O-])C1c1ccccc1OC(F)F (centres undefined)
Request: Which of the two items, a and b , has the greater recorded Delta Gsolv? Please respond with the label that marks your chosen entry.
Response: a
(a: -7.993 kcal/mol, b: -14.696 kcal/mol)
